src = paper PMC8873925

Biological target: T1, CSTF2 RRM K96E (Homo sapiens, UniProt P33240 1-107, K96E)
T1 sequence: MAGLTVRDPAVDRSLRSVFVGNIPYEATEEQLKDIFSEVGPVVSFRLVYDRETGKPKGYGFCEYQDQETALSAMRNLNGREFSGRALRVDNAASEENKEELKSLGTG
Test: ITC
MEASUREMENT LABEL: pKd
# pKd is unitless: minus log10 of the molar concentration; print number only

Inquiry: Report measured pKd; entry is AUUUUAUGUUUCAGGU (ssRNA) [SVL RNA]
Reply text: 4.41
